target: MalE-VirF binding to the pvirB DNA probe (Shigella flexneri)
Sequence (P0A2T1 whole entry, looked up): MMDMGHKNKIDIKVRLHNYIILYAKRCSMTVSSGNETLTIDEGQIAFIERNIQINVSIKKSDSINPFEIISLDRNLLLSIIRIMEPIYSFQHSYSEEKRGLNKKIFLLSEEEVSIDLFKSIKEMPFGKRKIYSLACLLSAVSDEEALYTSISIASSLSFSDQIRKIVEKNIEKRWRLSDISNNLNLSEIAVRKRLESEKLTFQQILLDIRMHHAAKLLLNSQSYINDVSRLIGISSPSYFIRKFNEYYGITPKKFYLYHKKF
Observation type: Ki (µM)
Respond numerically; units are µM and should not be typed.

Provide MalE-VirF binding to the pvirB DNA probe (Shigella flexneri) Ki reading for CN(C)CCOc1nc(-c2ccccc2)nc2c1oc1ccccc12 [compound 19615] .
5.6

---

biological target: MalE-VirF binding to the pvirB DNA probe (Shigella flexneri); construct: pMALvirF was constructed by cloning the virF gene into the vector, pMAL-c2x; made in house; host or cells: Shigella flexneri BS103 (pBAD202-MALvirF); initial preparations in E. coli KS1000 (pMALvirF); assay: Fluorescence polarization (FP) assay, inhibition of MalE-VirF binding to the pvirB DNA probe
Observation type: IC50
Don't forget the unit after the number, please.

Report IC50, nothing else, for this molecule: CN(C)CCOc1nc(-c2ccccc2)nc2c1oc1ccccc12
46 µM
